System: HBV RI
METHOD DESCRIPTION: HBV replication in 2.2.15 cells, intracellular DNA replication intermediates (secondary assay)
CONDITIONS USED: Hepatitis B virus, read-out: HBV RI EC50
pEC50: −log10 of the molar value.
QUANTITY MEASURED: pEC50

[
  {
    "MOLECULE": "CCCc1cc(=O)oc2c3c(c4c(c12)OC(C)(C)C=C4)OC(C)C(C)(C)C3=O (racemic) [(±)-15a]",
    "TEST SYSTEM": "HBV RI",
    "QUANTITY MEASURED": "pEC50",
    "MEASURED VALUE": "< 4.52"
  }
]
